The reported measurements were obtained from patent US20170369590A1.

Target: T1, HER2ECDHis (human, UniProt P04626 23-653, biotinylated in the cross-block ELISA (sites not given))
T1 construct: range 1-653; expressed in HEK-293F; also called soluble HER2; biotinylated HER2ECDHis
Experiment: ELISA; competitor 098
Would you mind labelling by % binding vs no competitor? At or over 20% is criterion met, under is criterion not met.

[[record]]
binder = "HuMab 132 (antibody, V domains shown) VH: QVQLVQSGAEVKKPGASVKVSCKASGYTFTSYGISWVRQAPGQGLEWMGWISAYNGNSNYVQKFQGRVTMTTDTTTSTAYMELRSLTSDDTAVYYCAREYSYDSGTYFYYGMDVWGQGTTVTVSS VL: EIVLTQSPATLSLSPGERATLSCRASQSVSSYLAWYQQKPGQAPRLLIYDASNRATGIPARFSGSGSGTDFTLTISSLEPEDFAVYYCQQRSNWPMYTFGQGTKLEIK"
group = "criterion met"

[[record]]
binder = "HuMab 159 (antibody, V domains shown, also called TH1014-159; PC1014-159) VH: EVQLVQSGAEVKKPGESLKISCKGSGYNFTSYWIGWVRQMPGKGLEWMGIIYPGDSDTRYSPSFQGQVTISADKSISTAYLQWSSLKASDTAMYYCARWGTYYDILTGYFNWFDPWGQGTLVTVSS VL: DIQMTQSPSSLSASVGDRVTITCRASQGISSWLAWYQQKPEKAPKSLIYAASSLQSGVPSRFSGSGSGTDFTLTISSLQPEDFATYYCQQYYIYPWTFGQGTKVEIK"
group = "criterion not met"

[[record]]
binder = "HuMab 169 (antibody, V domains shown, also called TH1014-169; PC1014-169) VH: QVQLVQSGAEVKKPGASVKVSCKASGYTFTNYGISWVRQAPGQGLEWMGWLSAYSGNTIYAQKLQGRVTMTTDTSTTTAYMELRSLRSDDTAVYYCARDRIVVRPDYFDYWGQGTLVTVSS VL: EIVLTQSPATLSLSPGERATLSCRASQSVSSYLAWYQQKPGQAPRLLIYDASNRATGIPARFSGSGSGTDFTLTISSLEPEDFAVYYCQQRSNWPRTFGQGTKVEIK"
group = "criterion met"

[[record]]
binder = "HuMab 153 (antibody, V domains shown) VH: QVQLVESGGGVVQPGRSLRLSCAASGFTFSDYVIHWVRQAPGKGLEWVTVISYDGSNKYYADSVKGRFTISRDNSKNTLYLQMNSLSAEDTAMYYCARGGITGTTGVFDYWGQGTLVTVSS VL: DIQMTQSPSSLSASVGDRVTITCRASQGISSWLAWYQQKPEKAPKSLIYDASSLQSGVPSRFSGSGYGTDFSLTISSLQPEDFAIYYCQQYKSYPITFGQGTRLEIK"
group = "criterion met"

[[record]]
binder = "HuMab 098 (antibody, V domains shown, also called TH1014-098; PC1014-098) VH: EVQLLESGGGLVQPGGSLRLSCAASGFTFSNYGMSWVRQAPGKGLEWVSAISGSAYSTYYADSVKGRFTISRDNSKNTLWLQMNSLRAEDTAVYYCAKAHYHGSGSYYTLFDYWGQGTLVTVSS VL: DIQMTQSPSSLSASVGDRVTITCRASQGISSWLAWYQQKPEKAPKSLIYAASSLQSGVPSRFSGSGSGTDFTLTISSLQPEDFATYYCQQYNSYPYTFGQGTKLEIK"
group = "criterion not met"

